details: in isopropanol, 278.15 K
readout.name: solubility (mole fraction)

INSERT INTO results (molecule, readout_name, value_measured) VALUES
  ('O=C(O)COc1ccc2ccccc2c1', 'solubility (mole fraction)', 0.00742);

###

conditions: in methyl acetate, 288.15 K
readout.name: solubility (mole fraction)

INSERT INTO assay_data (molecule, readout_name, value_measured) VALUES
  ('O=C(O)COc1ccc2ccccc2c1', 'solubility (mole fraction)', 0.021);

###

conditions: in ethanol, 318.15 K
readout.name: solubility (mole fraction)

INSERT INTO assay_data (molecule, readout_name, value_measured) VALUES
  ('O=C(O)COc1ccc2ccccc2c1', 'solubility (mole fraction)', 0.0582);

###

conditions: in isopropyl acetate, 288.15 K
readout.name: solubility (mole fraction)

INSERT INTO results (molecule, readout_name, value_measured) VALUES
  ('O=C(O)COc1ccc2ccccc2c1', 'solubility (mole fraction)', 0.014);

###

settings: in n-propanol, 293.15 K
readout.name: solubility (mole fraction)

INSERT INTO assay_data (molecule, value_measured) VALUES
  ('O=C(O)COc1ccc2ccccc2c1', 0.0178);

###

settings: in isopropanol, 288.15 K
readout.name: solubility (mole fraction)

INSERT INTO measurements (molecule, value_measured) VALUES
  ('O=C(O)COc1ccc2ccccc2c1', 0.0115);

###

conditions: in methanol, 308.15 K
readout.name: solubility (mole fraction)

INSERT INTO assay_data (molecule, value_measured) VALUES
  ('O=C(O)COc1ccc2ccccc2c1', 0.0415);

###

details: in isopropyl acetate, 283.15 K
readout.name: solubility (mole fraction)

INSERT INTO assay_data (molecule, readout_name, value_measured) VALUES
  ('O=C(O)COc1ccc2ccccc2c1', 'solubility (mole fraction)', 0.0121);

###

conditions: in isopropyl acetate, 313.15 K
readout.name: solubility (mole fraction)

INSERT INTO assay_data (molecule, value_measured) VALUES
  ('O=C(O)COc1ccc2ccccc2c1', 0.029);

###

settings: in isobutanol, 318.15 K
readout.name: solubility (mole fraction)

INSERT INTO results (molecule, value_measured) VALUES
  ('O=C(O)COc1ccc2ccccc2c1', 0.0333);

###

conditions: in acetonitrile, 293.15 K
readout.name: solubility (mole fraction)

INSERT INTO results (molecule, value_measured) VALUES
  ('O=C(O)COc1ccc2ccccc2c1', 0.0084);

###

conditions: in acetonitrile, 298.15 K
readout.name: solubility (mole fraction)

INSERT INTO assay_data (molecule, value_measured) VALUES
  ('O=C(O)COc1ccc2ccccc2c1', 0.0101);

###

settings: in acetonitrile, 308.15 K
readout.name: solubility (mole fraction)

INSERT INTO results (molecule, value_measured) VALUES
  ('O=C(O)COc1ccc2ccccc2c1', 0.0148);

###

conditions: in acetonitrile, 313.15 K
readout.name: solubility (mole fraction)

INSERT INTO measurements (molecule, readout_name, value_measured) VALUES
  ('O=C(O)COc1ccc2ccccc2c1', 'solubility (mole fraction)', 0.0178);

###

conditions: in isopropyl acetate, 323.15 K
readout.name: solubility (mole fraction)

INSERT INTO assay_data (molecule, value_measured) VALUES
  ('O=C(O)COc1ccc2ccccc2c1', 0.039);

Origin of the recorded values: BigSolDB 2.1
